test system: Staphylococcus epidermidis; test: Antibacterial activity against methicillin-resistant Staphylococcus epidermidis 10-10 after 18 to 24 hrs by NCCLS method; assay type: functional
reported-endpoint: log10(MIC) (log10 of the value in µg/mL)
Plainly stated, the numbers are log10 of MIC given in µg/mL.

Reported log10(MIC) for "O=C(O)c1cn(C2CC2)c2cc(N3CCN(Cc4ccc5c(c4)OCO5)CC3)c(F)cc2c1=O" : what is it? 1.20

Reported log10(MIC) for "O=C(O)c1cn(C2CC2)c2cc(N3CCN(Cc4ccc(OCc5ccccc5)cc4)CC3)c(F)cc2c1=O" : what is it? 1.20

Reported log10(MIC) for "COc1cc(CN2CCN(c3cc4c(cc3F)c(=O)c(C(=O)O)cn4C3CC3)CC2)cc(OC)c1OC" : what is it? 1.51

Reported log10(MIC) for "COc1ccc(CN2CCN(c3cc4c(cc3F)c(=O)c(C(=O)O)cn4C3CC3)CC2)c(OC)c1OC" : what is it? 1.81

Reported log10(MIC) for "COc1ccc(CN2CCN(c3cc4c(cc3F)c(=O)c(C(=O)O)cn4C3CC3)CC2)cc1OC" : what is it? 0.90

Reported log10(MIC) for "COc1ccc(CN2CCN(c3cc4c(cc3F)c(=O)c(C(=O)O)cn4C3CC3)CC2)c(Cl)c1OC" : what is it? 1.51

Reported log10(MIC) for "COc1ccc(CN2CCN(c3cc4c(cc3F)c(=O)c(C(=O)O)cn4C3CC3)CC2)cc1" : what is it? 0.90

Reported log10(MIC) for O=C(O)c1cn(C2CC2)c2cc(N3CCNCC3)c(F)cc2c1=O [CIPROFLOXACIN] : what is it? 0.90

Reported log10(MIC) for "COc1cc(CN2CCN(c3cc4c(cc3F)c(=O)c(C(=O)O)cn4C3CC3)CC2)c([N+](=O)[O-])cc1OC" : what is it? 1.20

Reported log10(MIC) for "COc1ccc(OC)c(CN2CCN(c3cc4c(cc3F)c(=O)c(C(=O)O)cn4C3CC3)CC2)c1" : what is it? 1.20

Reported log10(MIC) for "COc1cccc(CN2CCN(c3cc4c(cc3F)c(=O)c(C(=O)O)cn4C3CC3)CC2)c1OC" : what is it? 0.90

Reported log10(MIC) for "COc1cc(CN2CCN(c3cc4c(cc3F)c(=O)c(C(=O)O)cn4C3CC3)CC2)ccc1OCc1ccccc1" : what is it? 2.11

Reported log10(MIC) for "O=C(O)c1cn(C2CC2)c2cc(N3CCN(Cc4ccccc4)CC3)c(F)cc2c1=O" : what is it? 1.20

Reported log10(MIC) for "O=C(O)c1cn(C2CC2)c2cc(N3CCN(Cc4cc5c(cc4[N+](=O)[O-])OCO5)CC3)c(F)cc2c1=O" : what is it? 1.20

Reported log10(MIC) for "O=C(O)c1cn(C2CC2)c2cc(N3CCN(Cc4ccc5c(c4)OCCO5)CC3)c(F)cc2c1=O" : what is it? 0.90

* * *

test system: Escherichia coli; assay: Antibacterial activity against Escherichia coli 10-3 after 18 to 24 hrs by NCCLS method; assay type: functional
So I've got a bunch of compounds here, and I need their MIC values.

Value wanted: MIC (Escherichia coli) of entry "COc1cccc(CN2CCN(c3cc4c(cc3F)c(=O)c(C(=O)O)cn4C3CC3)CC2)c1OC" > 128 µg/mL

Value wanted: MIC (Escherichia coli) of entry "COc1ccc(CN2CCN(c3cc4c(cc3F)c(=O)c(C(=O)O)cn4C3CC3)CC2)c(OC)c1OC" 64 µg/mL

Value wanted: MIC (Escherichia coli) of entry "COc1cc(CN2CCN(c3cc4c(cc3F)c(=O)c(C(=O)O)cn4C3CC3)CC2)cc(OC)c1OC" > 128 µg/mL
